Tested on: Echinochloa crus-galli (ECHCG)
Assay: Post-emergence biological efficacy, glasshouse pot test
Format: in vivo
Settings: 312 h, 1,000 g/ha, evaluated after 13 days, 100=total damage, 0=no damage, read-out: Percentage damage caused to weed species, post-emergence, ECHCG
Consider the following compounds and their measured pest or weed control at 1000 g/ha readings.

COMPOUND: C=Cc1c(NCc2ccco2)cc(-c2ccc(Cl)c(N(C)C)c2F)nc1C(=O)OC [Compound 26-255]
TARGET OF ASSAY: Echinochloa crus-galli (ECHCG)
pest or weed control at 1000 g/ha (%): 0
--
COMPOUND: COC(=O)c1nc(Cl)c(F)c(NCc2ccccc2[N+](=O)[O-])c1Br [Compound 15-29]
TARGET OF ASSAY: Echinochloa crus-galli (ECHCG)
pest or weed control at 1000 g/ha (%): 50
--
COMPOUND: C=Cc1c(NCc2ccco2)cc(Cl)nc1C(=O)OC [Compound 26-12]
TARGET OF ASSAY: Echinochloa crus-galli (ECHCG)
pest or weed control at 1000 g/ha (%): 80
--
COMPOUND: C=Cc1c(NCC2CC2)cc(Cl)nc1C(=O)OC [Compound 1-12]
TARGET OF ASSAY: Echinochloa crus-galli (ECHCG)
pest or weed control at 1000 g/ha (%): 80
--
COMPOUND: COC(=O)c1nc(Cl)cc(NCC2CCCCCCC2)c1Cl [Compound 69-2]
TARGET OF ASSAY: Echinochloa crus-galli (ECHCG)
pest or weed control at 1000 g/ha (%): 0
--
COMPOUND: C=Cc1c(NCC2CCCCC2)cc(Cl)nc1C(=O)OC [Compound 67-12]
TARGET OF ASSAY: Echinochloa crus-galli (ECHCG)
pest or weed control at 1000 g/ha (%): 20
--
COMPOUND: C=Cc1c(C(=O)OC)nc(Cl)c(Cl)c1NCc1ccccc1[N+](=O)[O-] [Compound 15-39]
TARGET OF ASSAY: Echinochloa crus-galli (ECHCG)
pest or weed control at 1000 g/ha (%): 60
--
COMPOUND: COC(=O)c1nc(Cl)cc(NCc2ccco2)c1C [Compound 26-19]
TARGET OF ASSAY: Echinochloa crus-galli (ECHCG)
pest or weed control at 1000 g/ha (%): 30
--
COMPOUND: C=Cc1c(NCc2ccccc2F)cc(Cl)nc1C(=O)OC [Compound 6-12]
TARGET OF ASSAY: Echinochloa crus-galli (ECHCG)
pest or weed control at 1000 g/ha (%): 20
--
COMPOUND: C=Cc1c(NCc2ccccc2C)cc(Cl)nc1C(=O)OC [Compound 9-12]
TARGET OF ASSAY: Echinochloa crus-galli (ECHCG)
pest or weed control at 1000 g/ha (%): 50
--
COMPOUND: COC(=O)c1nc(Cl)c(F)c(NCc2ccccc2[N+](=O)[O-])c1C [Compound 15-31]
TARGET OF ASSAY: Echinochloa crus-galli (ECHCG)
pest or weed control at 1000 g/ha (%): 50
--
COMPOUND: COC(=O)c1nc(Cl)cc(NCc2cc(C)nn2C)c1Cl [Compound 77-2]
TARGET OF ASSAY: Echinochloa crus-galli (ECHCG)
pest or weed control at 1000 g/ha (%): 30
--
COMPOUND: COC(=O)c1nc(Cl)cc(NCc2ccco2)c1C1CC1 [Compound 26-7]
TARGET OF ASSAY: Echinochloa crus-galli (ECHCG)
pest or weed control at 1000 g/ha (%): 0
--
COMPOUND: COC(=O)c1nc(Cl)cc(NCc2ccccc2[N+](=O)[O-])c1Cl [Compound 15-2]
TARGET OF ASSAY: Echinochloa crus-galli (ECHCG)
pest or weed control at 1000 g/ha (%): 70
--
COMPOUND: COC(=O)c1nc(Cl)cc(NCc2ccncc2)c1Cl [Compound 80-2]
TARGET OF ASSAY: Echinochloa crus-galli (ECHCG)
pest or weed control at 1000 g/ha (%): 60
--
COMPOUND: COC(=O)c1nc(Cl)cc(NCc2ccccc2F)c1Cl [Compound 6-2]
TARGET OF ASSAY: Echinochloa crus-galli (ECHCG)
pest or weed control at 1000 g/ha (%): 40
--
COMPOUND: C=Cc1c(NCc2ncccc2C)cc(Cl)nc1C(=O)OC [Compound 33-12]
TARGET OF ASSAY: Echinochloa crus-galli (ECHCG)
pest or weed control at 1000 g/ha (%): 80
--
COMPOUND: COC(=O)c1nc(Cl)cc(NCc2ccccc2C(F)(F)F)c1Cl [Compound 74-2]
TARGET OF ASSAY: Echinochloa crus-galli (ECHCG)
pest or weed control at 1000 g/ha (%): 0
--
COMPOUND: COC(=O)c1nc(Cl)cc(N(CCO)Cc2ccco2)c1Cl [Compound 66-2]
TARGET OF ASSAY: Echinochloa crus-galli (ECHCG)
pest or weed control at 1000 g/ha (%): 20

###

Test system: Echinochloa crus-galli (ECHCG)
Experiment: Post-emergence biological efficacy, glasshouse pot test
Type: in vivo
Conditions: 312 h, 1,000 g/ha, evaluated after 13 days, 100=total damage, 0=no damage, read-out: Percentage damage caused to weed species, post-emergence, ECHCG

STRUCTURE SMILES: C=Cc1c(NCc2ccc(N(C)C)cc2)cc(Cl)nc1C(=O)OC
pest or weed control at 1000 g/ha: 50%

STRUCTURE SMILES: COC(=O)c1nc(Cl)c(Cl)c(NCc2ncccc2Cl)c1Br
pest or weed control at 1000 g/ha: 20%

STRUCTURE SMILES: COC(=O)c1nc(Cl)cc(NCc2ccco2)c1Cl
pest or weed control at 1000 g/ha: 30%

STRUCTURE SMILES: COC(=O)c1nc(Cl)cc(NCc2cccs2)c1Cl
pest or weed control at 1000 g/ha: 70%

###

Test system: Solanum nigrum (SOLNI)
Experiment: Post-emergence biological efficacy, glasshouse pot test
Type: in vivo
Details: 312 h, 1,000 g/ha, evaluated after 13 days, 100=total damage, 0=no damage, read-out: Percentage damage caused to weed species, post-emergence, SOLNI
ENDPOINT NAME: pest or weed control at 1000 g/ha (%)

STRUCTURE SMILES: CCO/C=C\c1c(NCc2ccco2)cc(-c2ccc(Cl)c(OC)c2F)nc1C(=O)OC
ASSAY RESULT: 60

STRUCTURE SMILES: COC(=O)c1nc(Cl)cc(NCc2ncccc2C)c1Cl
ASSAY RESULT: 100

STRUCTURE SMILES: COC(=O)c1nc(Cl)cc(NCc2cnc(C)cn2)c1Cl
ASSAY RESULT: 100

STRUCTURE SMILES: COC(=O)c1nc(Cl)cc(NC[C@@H]2CCCC[C@H]2O)c1Cl
ASSAY RESULT: 100

STRUCTURE SMILES: COC(=O)c1nc(Cl)c(Cl)c(NCc2ccccc2[N+](=O)[O-])c1Br
ASSAY RESULT: 100

###

System: Amaranthus retroflexus (AMARE)
Experiment: Post-emergence biological efficacy, glasshouse pot test
Type: in vivo
Conditions: 312 h, 1,000 g/ha, evaluated after 13 days, 100=total damage, 0=no damage, read-out: Percentage damage caused to weed species, post-emergence, AMARE
Listing of entries alongside the reported pest or weed control at 1000 g/ha.

STRUCTURE SMILES: COC(=O)c1nc(Cl)cc(NCc2cccc(F)c2)c1Cl
pest or weed control at 1000 g/ha: 100%
--
STRUCTURE SMILES: C=Cc1c(NCc2ccccc2Cl)cc(Cl)nc1C(=O)OC
pest or weed control at 1000 g/ha: 100%
--
STRUCTURE SMILES: C=Cc1c(NCc2ccccc2F)cc(Cl)nc1C(=O)OC
pest or weed control at 1000 g/ha: 100%
--
STRUCTURE SMILES: C=Cc1c(NCc2c(Cl)cccc2Cl)cc(Cl)nc1C(=O)OC
pest or weed control at 1000 g/ha: 100%
--
STRUCTURE SMILES: COC(=O)c1nc(Cl)cc(NC[C@@H]2CCCC[C@H]2O)c1Cl
pest or weed control at 1000 g/ha: 100%
--
STRUCTURE SMILES: C=Cc1c(NCc2ccccc2)cc(Cl)nc1C(=O)OC
pest or weed control at 1000 g/ha: 100%
--
STRUCTURE SMILES: COC(=O)c1nc(Cl)cc(NCc2ccco2)c1C1CC1
pest or weed control at 1000 g/ha: 40%
--
STRUCTURE SMILES: C=Cc1c(NCc2ccco2)cc(-c2ccc(Cl)c(N(C)C)c2F)nc1C(=O)OC
pest or weed control at 1000 g/ha: 20%
--
STRUCTURE SMILES: COC(=O)c1nc(Cl)cc(NCc2ccco2)c1Br
pest or weed control at 1000 g/ha: 100%

Where do these numbers come from? They come from patent US20120100990A1.
